A collection of compounds and their measured GI50
tested on: COLO 205 colon; test: NCI tumour cell line growth inhibition, 48 h

// solved cases for GI50 follow
O=C1c2cc3c(cc2-c2c1c1ccc(Cl)cc1c(=O)n2CCCNCCO)OCO3 = 1090 nM
COc1ccc(/C=C/C(=O)c2ccc(SC)cc2)cc1OC = 21000 nM

What is its GI50 for COLO 205 colon? Entry: O=C(CNc1ccc2c(c1)C(=O)c1ccccc1C2=O)Nc1ccc2c(c1)C(=O)c1ccccc1C2=O 1260 nM

Consider next the compound O=C(Nc1cc(Cl)cc(Cl)c1)c1ccc(NC2=C(Cl)C(=O)N(Cc3ccc(Cl)cc3Cl)C2=O)cc1 in the same way. 12100 nM
